All values here come from ChEMBL document CHEMBL1125117.

Molecular target: Polyunsaturated fatty acid 5-lipoxygenase (Homo sapiens)
Assay: In vitro inhibitory activity against 5-lipoxygenase in human polymorphonuclear (PMN) cells
Conditions: concentration not given here
observation-type: inhibition (%)

- compound: "CSC1(C)C(=O)N(c2ccccc2)c2ncccc21 (stereo unspecified)"
  result-units: "%"
  inhibition: 21

A: CCC1(C)C(=O)N(c2ccccc2)c2ncccc21 (stereo unspecified)
B: CC1(C)C(=O)N(Cc2ccc(Cl)cc2)c2ncccc21
C: CC1C(=O)N(c2ccccc2)c2ncccc21 (stereo unspecified)
Task: Sort these compounds on inhibition so the largest reading comes first. # list labels per requested ordering
Output: B, A, C

A: CC1(C)C(=O)N(c2ccc(Br)cc2)c2ncccc21
B: CSc1ccc(N2C(=O)C(C)(C)c3cccnc32)cc1
Task: Which numeric inhibition is bigger, that of A or that of B ? // return label of chosen record
Output: B
(B: 23%, A: 11%)
